Reference source: patent US20190092852A1

Biological target: T1, cyno IL-33 N-His (cynomolgus monkey)
T1 chain: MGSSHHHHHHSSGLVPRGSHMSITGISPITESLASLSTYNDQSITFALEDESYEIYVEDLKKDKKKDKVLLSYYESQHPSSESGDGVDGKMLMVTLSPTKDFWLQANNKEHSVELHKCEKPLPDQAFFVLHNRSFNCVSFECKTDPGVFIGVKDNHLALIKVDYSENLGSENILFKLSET
Assay: SPR Biacore T200, 25 C
For each entry below, report its koff value.
Answers are plain numbers, in s⁻¹.

# count of solved cases: 2
INSERT INTO measurements (binder, recorded_result) VALUES
  ('10C12.38.H6.87Y.58I IgG4 (antibody, V domains shown, also called anti-IL33 10C12.38.H6.87Y.58I IgG4) VH: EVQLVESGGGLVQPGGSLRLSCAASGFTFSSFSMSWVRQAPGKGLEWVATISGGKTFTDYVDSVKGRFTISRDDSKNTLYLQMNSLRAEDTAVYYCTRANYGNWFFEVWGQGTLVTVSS VL: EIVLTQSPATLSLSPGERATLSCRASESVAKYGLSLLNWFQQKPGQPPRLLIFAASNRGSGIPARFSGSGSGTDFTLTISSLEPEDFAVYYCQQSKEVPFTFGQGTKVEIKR', 0.000278),
  ('H4H9665P (antibody, V domains shown) VH: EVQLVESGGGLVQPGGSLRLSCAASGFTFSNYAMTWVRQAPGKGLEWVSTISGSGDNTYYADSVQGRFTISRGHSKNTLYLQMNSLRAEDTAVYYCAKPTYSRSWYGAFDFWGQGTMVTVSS VL: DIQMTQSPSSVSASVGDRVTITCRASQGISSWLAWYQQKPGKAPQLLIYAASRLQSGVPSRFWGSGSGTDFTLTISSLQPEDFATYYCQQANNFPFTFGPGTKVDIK', 0.000426);

Turning now to a further binder:
Value of koff reported for the binder H4H9663P (antibody, V domains shown) VH: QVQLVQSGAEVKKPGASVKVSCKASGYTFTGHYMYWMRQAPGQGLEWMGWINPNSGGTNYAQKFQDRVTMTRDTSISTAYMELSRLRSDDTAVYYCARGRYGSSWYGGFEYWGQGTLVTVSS VL: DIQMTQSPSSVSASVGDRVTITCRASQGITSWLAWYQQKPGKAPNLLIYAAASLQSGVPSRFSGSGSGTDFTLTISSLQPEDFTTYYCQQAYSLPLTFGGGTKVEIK is 0.000545
